- assay-text: Drug level in plasma of healthy human at 500 mg, iv administered as 2-h infusion every 8 h after 6 hrs
outcome-measure: concentration at 6 h (ng/mL)
Could you give me the number in ng/mL? Just the number is fine.

QUERY: Please look up its concentration at 6 h: `Nc1nc(/C(=N/O)C(=O)N[C@@H]2C(=O)N3C(C(=O)O)=C(/C=C4\CCN([C@@H]5CCNC5)C4=O)CS[C@H]23)ns1`
RESULT: 6910

###

- assay-text: Drug level in plasma of healthy human at 500 mg, iv administered as 2-h infusion every 8 h after 8 hrs
outcome-measure: concentration at 8 h (ng/mL)
Kindly answer with a numeric value in ng/mL, unit omitted.

QUERY: Suppose we examine the compound Nc1nc(/C(=N/O)C(=O)N[C@@H]2C(=O)N3C(C(=O)O)=C(/C=C4\CCN([C@@H]5CCNC5)C4=O)CS[C@H]23)ns1 [CEFTOBIPROLE] ; what concentration at 8 h value has been reported?
RESULT: 3650

###

- assay-text: Plasma protein binding in mouse
- Type: ADME, cell-free
- test-parameters: read-out: PPB (converted)
outcome-measure: fraction unbound

QUERY: Entry under review: Nc1nc(/C(=N/O)C(=O)N[C@@H]2C(=O)N3C(C(=O)O)=C(/C=C4\CCN([C@@H]5CCNC5)C4=O)CS[C@H]23)ns1 [CEFTOBIPROLE] . Reported fraction unbound?
RESULT: 0.81

###

- assay-text: Clearance in healthy human at 500 mg, iv administered as 2-h infusion every 8 h
- test-parameters: in vivo
outcome-measure: CL/F (mL/min)
Respond numerically; units are mL/min and should not be typed.

QUERY: Would you kindly share the measured CL/F for `Nc1nc(/C(=N/O)C(=O)N[C@@H]2C(=O)N3C(C(=O)O)=C(/C=C4\CCN([C@@H]5CCNC5)C4=O)CS[C@H]23)ns1` ?
RESULT: 86

###

- assay-text: AUC in epithelial lining fluid of healthy human at 500 mg, iv administered as 2-h infusion every 8 h
- test-parameters: in vivo
outcome-measure: AUC (ng·h/mL)
Answer with a number only, understood to be in ng·h/mL.

QUERY: Any idea what AUC was measured for `Nc1nc(/C(=N/O)C(=O)N[C@@H]2C(=O)N3C(C(=O)O)=C(/C=C4\CCN([C@@H]5CCNC5)C4=O)CS[C@H]23)ns1` ?
RESULT: 25200

###

- assay-text: Drug level in plasma of healthy human at 500 mg, iv administered as 2-h infusion every 8 h after 2.5 hrs
outcome-measure: concentration at 2.5 h (ng/mL)
Please respond with the number in ng/mL and leave the unit unwritten.

QUERY: Quick one: concentration at 2.5 h of Nc1nc(/C(=N/O)C(=O)N[C@@H]2C(=O)N3C(C(=O)O)=C(/C=C4\CCN([C@@H]5CCNC5)C4=O)CS[C@H]23)ns1 [CEFTOBIPROLE] ?
RESULT: 17700

###

- assay-text: Drug level in epithelial lining fluid of healthy human at 500 mg, iv administered as 2-h infusion every 8 h after 8 hrs
- test-parameters: read-out: Drug uptake
outcome-measure: concentration at 8 h (ng/mL)
A number alone suffices; assume ng/mL.

QUERY: Report concentration at 8 h for Nc1nc(/C(=N/O)C(=O)N[C@@H]2C(=O)N3C(C(=O)O)=C(/C=C4\CCN([C@@H]5CCNC5)C4=O)CS[C@H]23)ns1 [CEFTOBIPROLE] please.
RESULT: 1510
